# protocol_summary: Oral bioavailability in Wistar Hannover rat at 10 mg/kg administered as crystalline form in 2% Tween 80 (v/v) in 0.5% (w/v) methyl cellulose in water formulation by LC-MS/MS analysis
# Type: ADME, organism-based
# condition_summary: in vivo
assay_readout: bioavailability (%)

| compound_structure | measured_result |
| --- | --- |
| CC(C)(C)[C@H](NC(=O)C(F)(F)F)C(=O)N1C[C@H](OC(F)F)C[C@H]1C(=O)N[C@H](C#N)C[C@@H]1CCNC1=O | 11.9 |

* * *

# protocol_summary: in vivo
# condition_summary: Wistar Hannover, rat, po, 1000 mg/kg
assay_readout: Tmax (h)

| compound_structure | assay_readout | measured_result |
| --- | --- | --- |
| CC(C)(C)[C@H](NC(=O)C(F)(F)F)C(=O)N1C[C@H]2[C@@H]([C@H]1C(=O)N[C@H](C#N)C[C@@H]1CCNC1=O)C2(C)C | Tmax | 1 |
